- experimental-target: T1, RBD domain of the spike protein of SARS-CoV-2 virus (Acro Biosystems SPD-C52H3) (SARS-CoV-2, UniProt P0DTC2 319-537)
- T1 construct: domain: RBD domain
- procedure-details: Affinity (SPR) by Octet; antigen not named, taken from the epitope column

binder	Kd
YANG-1117 (antibody, V domains shown) VH: EVQLVESGGGLVKPGGSLRLSCAASGFTFSSYSVNWVRQAPGKGLEWVSSISTGSSYIFYADSVKGRFTISRDNAKNSLYLQMNSLRAEDTAVYYCVKTGDLPFFDYWGQGTLVTVSS VL: QSALTQPASVSGSPGQSITISCTGTRSDVGRYNYVSWYQQHPGKAPKLMIYEVTNRPSGVSNRFSGSKSGNTASLTISGLQAEDEADYYCSSYTNNSTMVFGGGTKLTVL	< 0.1 nM
